The measurements presented in this section are drawn from the supplement of paper PMC12645437.

Biological target: T1, CRBN, Q96SW2;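 note: pooled lentiviral library of zinc finger degron-EGFP fusions in mCherry-positive Jurkat cells, FACS-sorted after compound exposure, with degron abundance counted by next-generation sequencing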
T1 chain: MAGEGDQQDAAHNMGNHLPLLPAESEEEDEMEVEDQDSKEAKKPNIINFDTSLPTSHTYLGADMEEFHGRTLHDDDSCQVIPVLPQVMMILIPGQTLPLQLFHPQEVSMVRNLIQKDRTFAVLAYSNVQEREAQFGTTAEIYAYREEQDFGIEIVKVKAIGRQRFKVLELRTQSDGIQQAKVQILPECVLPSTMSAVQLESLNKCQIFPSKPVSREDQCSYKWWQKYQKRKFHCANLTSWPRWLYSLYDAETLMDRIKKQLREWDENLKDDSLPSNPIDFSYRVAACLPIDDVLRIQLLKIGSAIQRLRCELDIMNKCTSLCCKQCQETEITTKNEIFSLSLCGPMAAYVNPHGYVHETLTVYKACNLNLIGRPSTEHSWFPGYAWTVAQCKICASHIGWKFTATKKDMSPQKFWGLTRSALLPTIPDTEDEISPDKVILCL
Assay: log2 fold change of degron read counts, EGFP-low vs EGFP+ sorted cells (limma voom), compound-induced degradation; higher = more compound-induced degradation of the degron-EGFP fusion; degrons are variants of IKZF1/3 zinc finger 2; compound dose not given here
Settings: Jurkat; 18 h; compound: compound 19 (5-tert-butyl-thalidomide)
Whole data set: some 8,300 sequences, median “log2 fold change of degron read counts, EGFP-low vs EGFP+ sorted cells (limma voom), compound-induced degradation” near -1.1, cut for the highest 2% near 3.2. This excerpt belongs to a sample that is enriched for the highest values.
Answer each item with its documented log2 fold change of degron read counts.

log2 fold change of degron read counts for FNCEQCGAPFTQKGNLLRHIKL [46F_47N_49E_50Q_52G_53A_54P_55F_67L_, Q9UKT9] is -1.19

log2 fold change of degron read counts for FVCNQCGRVFTQKGNLLRHIKL [46F_47V_49N_50Q_52G_53R_54V_55F_67L_, Q9UKT9] is -2.6

log2 fold change of degron read counts for FNCEICGAPFTQKGNLLRHIKL [46F_47N_49E_50I_52G_53A_54P_55F_67L_, Q9UKT9] is 3.39

log2 fold change of degron read counts for FQCPVCGATFTQKGNLLRHIKL [46F_47Q_49P_50V_52G_53A_54T_55F_67L_, Q9UKT9] is 0.396

log2 fold change of degron read counts for FDCPVCGATFTQKGNLLRHIKL [46F_47D_49P_50V_52G_53A_54T_55F_67L_, Q9UKT9] is 1.07

log2 fold change of degron read counts for FMCPVCGATFTQKGNLLRHIKL [46F_47M_49P_50V_52G_53A_54T_55F_67L_, Q9UKT9] is -1.09

log2 fold change of degron read counts for FWCPVCGATFTQKGNLLRHIKL [46F_47W_49P_50V_52G_53A_54T_55F_67L_, Q9UKT9] is 2.12

log2 fold change of degron read counts for FCCPVCGATFTQKGNLLRHIKL [46F_47C_49P_50V_52G_53A_54T_55F_67L_, Q9UKT9] is 1.17

log2 fold change of degron read counts for FWCEICGRPFTQKGNLLRHIKL [46F_47W_49E_50I_52G_53R_54P_55F_67L_, Q9UKT9] is 1.92

log2 fold change of degron read counts for FHCNQCGAPFTQKGNLLRHIKL [46F_47H_49N_50Q_52G_53A_54P_55F_67L_, Q9UKT9] is -0.273

log2 fold change of degron read counts for FDCNICGAPFTQKGNLLRHIKL [46F_47D_49N_50I_52G_53A_54P_55F_67L_, Q9UKT9] is 0.00765

log2 fold change of degron read counts for FICEICGAYFTQKGNLLRHIKL [46F_47I_49E_50I_52G_53A_54Y_55F_67L_, Q9UKT9] is -0.272

log2 fold change of degron read counts for FSCNICGAPFTQKGNLLRHIKL [46F_47S_49N_50I_52G_53A_54P_55F_67L_, Q9UKT9] is 2.52

log2 fold change of degron read counts for FQCNQCGANFTQKGNLLRHIKL [46F_47Q_49N_50Q_52G_53A_54N_55F_67L_, Q9UKT9] is -2.24

log2 fold change of degron read counts for FECPVCGATFTQKGNLLRHIKL [46F_47E_49P_50V_52G_53A_54T_55F_67L_, Q9UKT9] is -0.45

log2 fold change of degron read counts for FICSVCGHEFTQKGNLLRHIKL [46F_47I_49S_50V_52G_53H_54E_55F_67L_, Q9UKT9] is -3.46

log2 fold change of degron read counts for FWCEICGAYFTQKGNLLRHIKL [46F_47W_49E_50I_52G_53A_54Y_55F_67L_, Q9UKT9] is 3.24

log2 fold change of degron read counts for FRCPVCGAYFTQKGNLLRHIKL [46F_47R_49P_50V_52G_53A_54Y_55F_67L_, Q9UKT9] is -0.775

log2 fold change of degron read counts for FGCEICGAPFTQKGNLLRHIKL [46F_47G_49E_50I_52G_53A_54P_55F_67L_, Q9UKT9] is 1.88

log2 fold change of degron read counts for FKCNICGATFTQKGNLLRHIKL [46F_47K_49N_50I_52G_53A_54T_55F_67L_, Q9UKT9] is -2.19

log2 fold change of degron read counts for FMCNICGAPFTQKGNLLRHIKL [46F_47M_49N_50I_52G_53A_54P_55F_67L_, Q9UKT9] is 2.52

log2 fold change of degron read counts for FFCPVCGATFTQKGNLLRHIKL [46F_47F_49P_50V_52G_53A_54T_55F_67L_, Q9UKT9] is 2.59

log2 fold change of degron read counts for FQCNICGAPFTQKGNLLRHIKL [46F_47Q_49N_50I_52G_53A_54P_55F_67L_, Q9UKT9] is 2.35

log2 fold change of degron read counts for FACEICGAYFTQKGNLLRHIKL [46F_47A_49E_50I_52G_53A_54Y_55F_67L_, Q9UKT9] is 3.17

log2 fold change of degron read counts for FGCNICGALFTQKGNLLRHIKL [46F_47G_49N_50I_52G_53A_54L_55F_67L_, Q9UKT9] is -0.269

log2 fold change of degron read counts for FQCEICGADFTQKGNLLRHIKL [46F_47Q_49E_50I_52G_53A_54D_55F_67L_, Q9UKT9] is -0.47

log2 fold change of degron read counts for FGCEICGAYFTQKGNLLRHIKL [46F_47G_49E_50I_52G_53A_54Y_55F_67L_, Q9UKT9] is 1.74

log2 fold change of degron read counts for FGCPVCGATFTQKGNLLRHIKL [46F_47G_49P_50V_52G_53A_54T_55F_67L_, Q9UKT9] is 3.66

log2 fold change of degron read counts for FKCNICGAPFTQKGNLLRHIKL [46F_47K_49N_50I_52G_53A_54P_55F_67L_, Q9UKT9] is 1.75
